# Test system: NCI-H1993
# EXPERIMENTAL PROTOCOL: relative viability (nuclei count vs DMSO), 5 days (fraction); higher = more cells survive
# MEASUREMENT CONDITIONS: first compound 0.005 µM
REPORTED METRIC: relative viability

CC1(C)CCC(c2ccc(Cl)cc2)=C(CN2CCN(c3ccc(C(=O)NS(=O)(=O)c4ccc(N[C@H](CCN5CCOCC5)CSc5ccccc5)c(S(=O)(=O)C(F)(F)F)c4)cc3)CC2)C1 [Navitoclax] + Nc1ncn([C@H]2C[C@H](O)[C@@H](CO)O2)c(=O)n1 [Decitabine] (partner 2 µM)    0.659

Consider now this further compound.
# input compound: CC1(C)CCC(c2ccc(Cl)cc2)=C(CN2CCN(c3ccc(C(=O)NS(=O)(=O)c4ccc(N[C@H](CCN5CCOCC5)CSc5ccccc5)c(S(=O)(=O)C(F)(F)F)c4)cc3)CC2)C1 [Navitoclax] + C[C@]1(O)C[C@@H](c2nc(-c3ccc4ccc(-c5ccccc5)nc4c3)c3c(N)nccn32)C1 [Linsitinib] (partner 1 µM) ; wanted: its relative viability
0.721

----------
# Test system: NCI-H1915
# EXPERIMENTAL PROTOCOL: relative viability (nuclei count vs DMSO), 5 days (fraction); higher = more cells survive
# MEASUREMENT CONDITIONS: first compound 0.005 µM
REPORTED METRIC: relative viability
Give bare numbers.

CC1(C)CCC(c2ccc(Cl)cc2)=C(CN2CCN(c3ccc(C(=O)NS(=O)(=O)c4ccc(N[C@H](CCN5CCOCC5)CSc5ccccc5)c(S(=O)(=O)C(F)(F)F)c4)cc3)CC2)C1 [Navitoclax] + CS(=O)(=O)N1CCN(Cc2cc3nc(-c4cccc5[nH]ncc45)nc(N4CCOCC4)c3s2)CC1 [Pictilisib] (partner 1 µM)    0.893
CC1(C)CCC(c2ccc(Cl)cc2)=C(CN2CCN(c3ccc(C(=O)NS(=O)(=O)c4ccc(N[C@H](CCN5CCOCC5)CSc5ccccc5)c(S(=O)(=O)C(F)(F)F)c4)cc3)CC2)C1 [Navitoclax] + Nc1ncn([C@H]2C[C@H](O)[C@@H](CO)O2)c(=O)n1 [Decitabine] (partner 2 µM)    0.263
CC1(C)CCC(c2ccc(Cl)cc2)=C(CN2CCN(c3ccc(C(=O)NS(=O)(=O)c4ccc(N[C@H](CCN5CCOCC5)CSc5ccccc5)c(S(=O)(=O)C(F)(F)F)c4)cc3)CC2)C1 [Navitoclax] + Nc1nc2[nH]cc(CCc3ccc(C(=O)N[C@@H](CCC(=O)O)C(=O)O)cc3)c2c(=O)[nH]1 [Pemetrexed] (partner 0.2 µM)    0.495

Please examine the following record next.
Fill blank: measured relative viability of the compound CC1(C)CCC(c2ccc(Cl)cc2)=C(CN2CCN(c3ccc(C(=O)NS(=O)(=O)c4ccc(N[C@H](CCN5CCOCC5)CSc5ccccc5)c(S(=O)(=O)C(F)(F)F)c4)cc3)CC2)C1 [Navitoclax] + NC(=O)Nc1cc(-c2cccc(F)c2)sc1C(=O)N[C@H]1CCCNC1 [AZD7762] (partner 0.2 µM) is ____.
0.726

----------
# Test system: HCC-827
# EXPERIMENTAL PROTOCOL: relative viability (nuclei count vs DMSO), 5 days (fraction); higher = more cells survive
# MEASUREMENT CONDITIONS: first compound 0.01581 µM
Exercise: state measured relative viability for each of the compounds provided.
Give bare numbers.

Sample records with relative viability:
CC1(C)CCC(c2ccc(Cl)cc2)=C(CN2CCN(c3ccc(C(=O)NS(=O)(=O)c4ccc(N[C@H](CCN5CCOCC5)CSc5ccccc5)c(S(=O)(=O)C(F)(F)F)c4)cc3)CC2)C1 [Navitoclax] + C[C@@H](Oc1cc(-c2cnn(C3CCNCC3)c2)cnc1N)c1c(Cl)ccc(F)c1Cl [Crizotinib] (partner 1 µM)    0.962
CC1(C)CCC(c2ccc(Cl)cc2)=C(CN2CCN(c3ccc(C(=O)NS(=O)(=O)c4ccc(N[C@H](CCN5CCOCC5)CSc5ccccc5)c(S(=O)(=O)C(F)(F)F)c4)cc3)CC2)C1 [Navitoclax] + N=C(N)NC(=N)NCCc1ccccc1 [Phenformin] (partner 250 µM)    0.434

Continue with the compound presented below.
Notebook entry, HCC-827 assay: relative viability of CC1(C)CCC(c2ccc(Cl)cc2)=C(CN2CCN(c3ccc(C(=O)NS(=O)(=O)c4ccc(N[C@H](CCN5CCOCC5)CSc5ccccc5)c(S(=O)(=O)C(F)(F)F)c4)cc3)CC2)C1 [Navitoclax] + CS(=O)(=O)N1CCN(Cc2cc3nc(-c4cccc5[nH]ncc45)nc(N4CCOCC4)c3s2)CC1 [Pictilisib] (partner 1 µM) = ?
1

----------
# Tested on: ChaGo-K-1
# EXPERIMENTAL PROTOCOL: relative viability (nuclei count vs DMSO), 5 days (fraction); higher = more cells survive
# MEASUREMENT CONDITIONS: first compound 0.01 µM
Flag rule - relative viability less than 0.6 flags satisfied; the remaining entries get not satisfied.

NC(=O)Nc1cc(-c2cccc(F)c2)sc1C(=O)N[C@H]1CCCNC1 [AZD7762] + COc1cc2c(Oc3ccc(NC(=O)C4(C(=O)Nc5ccc(F)cc5)CC4)cc3F)ccnc2cc1OCCCN1CCOCC1 [Foretinib] (partner 0.25 µM)    not satisfied
NC(=O)Nc1cc(-c2cccc(F)c2)sc1C(=O)N[C@H]1CCCNC1 [AZD7762] + COc1cccc2cc(-c3nc([C@H]4CC[C@H](C(=O)O)CC4)n4ncnc(N)c34)[nH]c12 [OSI-027] (partner 0.5 µM)    not satisfied
NC(=O)Nc1cc(-c2cccc(F)c2)sc1C(=O)N[C@H]1CCCNC1 [AZD7762] + N=C(N)NC(=N)NCCc1ccccc1 [Phenformin] (partner 250 µM)    satisfied
NC(=O)Nc1cc(-c2cccc(F)c2)sc1C(=O)N[C@H]1CCCNC1 [AZD7762] + Nc1nc2[nH]cc(CCc3ccc(C(=O)N[C@@H](CCC(=O)O)C(=O)O)cc3)c2c(=O)[nH]1 [Pemetrexed] (partner 0.2 µM)    satisfied
NC(=O)Nc1cc(-c2cccc(F)c2)sc1C(=O)N[C@H]1CCCNC1 [AZD7762] + Cc1nc(Nc2ncc(C(=O)Nc3c(C)cccc3Cl)s2)cc(N2CCN(CCO)CC2)n1 [Dasatinib] (partner 0.075 µM)    satisfied

From here, focus on the item given below.
API: query returns whether the compound falls strictly under 0.6 in relative viability. Query: NC(=O)Nc1cc(-c2cccc(F)c2)sc1C(=O)N[C@H]1CCCNC1 [AZD7762] + O=C(c1cc(Cc2n[nH]c(=O)c3ccccc23)ccc1F)N1CCN(C(=O)C2CC2)CC1 [Olaparib] (partner 8 µM)
satisfied

----------
# Test system: 201T
# EXPERIMENTAL PROTOCOL: relative viability (nuclei count vs DMSO), 5 days (fraction); higher = more cells survive
# MEASUREMENT CONDITIONS: first compound 0.3162 µM
REPORTED METRIC: relative viability
Numbers only.

NC(=O)Nc1cc(-c2cccc(F)c2)sc1C(=O)N[C@H]1CCCNC1 [AZD7762] + C[C@]1(O)C[C@@H](c2nc(-c3ccc4ccc(-c5ccccc5)nc4c3)c3c(N)nccn32)C1 [Linsitinib] (partner 1 µM)    1.09

Consider the additional molecule presented here.
201T / relative viability / NC(=O)Nc1cc(-c2cccc(F)c2)sc1C(=O)N[C@H]1CCCNC1 [AZD7762] + COc1cc2c(Oc3ccc(NC(=O)C4(C(=O)Nc5ccc(F)cc5)CC4)cc3F)ccnc2cc1OCCCN1CCOCC1 [Foretinib] (partner 0.25 µM) : value?
0.961

----------
# Tested on: LOU-NH91
# EXPERIMENTAL PROTOCOL: relative viability (nuclei count vs DMSO), 5 days (fraction); higher = more cells survive
# MEASUREMENT CONDITIONS: first compound 8 µM
Hi there, I'd appreciate the recorded relative viability for every entry that follows.

Study these solved cases before continuing.
C=C1C(=O)O[C@@H](CCCCCCCC)[C@@H]1C(=O)O [C-75] + CS(=O)(=O)CCNCc1ccc(-c2ccc3ncnc(Nc4ccc(OCc5cccc(F)c5)c(Cl)c4)c3c2)o1 [Lapatinib] (partner 2 µM)    0.716
C=C1C(=O)O[C@@H](CCCCCCCC)[C@@H]1C(=O)O [C-75] + Nc1ncn([C@H]2C[C@H](O)[C@@H](CO)O2)c(=O)n1 [Decitabine] (partner 2 µM)    0.792
C=C1C(=O)O[C@@H](CCCCCCCC)[C@@H]1C(=O)O [C-75] + CC(=O)c1c(C)c2cnc(Nc3ccc(N4CCNCC4)cn3)nc2n(C2CCCC2)c1=O [Palbociclib] (partner 0.5 µM)    0.464
C=C1C(=O)O[C@@H](CCCCCCCC)[C@@H]1C(=O)O [C-75] + O=C(CCCCCCC(=O)Nc1ccccc1)NO [Vorinostat] (partner 1 µM)    0.898
C=C1C(=O)O[C@@H](CCCCCCCC)[C@@H]1C(=O)O [C-75] + Cc1cc(Nc2cc(N3CCN(C)CC3)nc(Sc3ccc(NC(=O)C4CC4)cc3)n2)n[nH]1 [Tozasertib] (partner 0.1 µM)    0.642

Next compound, relative viability to be filled in.
Please give the measured relative viability for this compound: C=C1C(=O)O[C@@H](CCCCCCCC)[C@@H]1C(=O)O [C-75] + C[C@@H](Oc1cc(-c2cnn(C3CCNCC3)c2)cnc1N)c1c(Cl)ccc(F)c1Cl [Crizotinib] (partner 1 µM)
0.742
